Hi there, I'd appreciate the recorded pKd for every entry that follows.
experimental-system: T1, Extracellular domain of human PD1 (huPD1-ECD) (human, UniProt Q15116 25-169, biotinylated in the ligand inhibition assay (sites not given))
T1 construct: Expressed with a hexahistidine tag or as Fc fusion; also called biotinylated PD-1
T1 sequence (Q15116 25-169 limits assumed): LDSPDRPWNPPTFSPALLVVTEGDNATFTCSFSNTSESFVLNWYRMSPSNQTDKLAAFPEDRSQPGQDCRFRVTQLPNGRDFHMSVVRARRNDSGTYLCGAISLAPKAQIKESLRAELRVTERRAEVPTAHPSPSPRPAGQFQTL
assay-method-text: SPR ProteOn, captured mAb, huPD1-ECD analyte
pKd field: float, defined as -log10 of concentration (mol/L).

Looking up PD1B175 (antibody, V domains shown, Tested as IgG2sigma; also called PD1H163/PH9L3) VH: QVQLVQSGAEVKKPGSSVKVSCKASGGTFKSYVIHWVRQAPGQGLEWMGGIIPIFGTANYAQKFQGRVTITADESTSTAYMELSSLRSEDTAVYYCARGYVRATGMLDYWGQGTLVTVSS VL: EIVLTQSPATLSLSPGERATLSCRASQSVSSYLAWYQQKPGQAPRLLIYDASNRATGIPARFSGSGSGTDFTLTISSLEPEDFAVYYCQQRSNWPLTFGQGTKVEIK , I found its pKd recorded as 7.64

Briefly, pKd measured for PD1B71 (antibody, V domains shown, Tested as IgG2sigma/kappa; also called PD1H108/PH9L3) VH: QVQLVQSGAEVKKPGSSVKVSCKASGGTFSSYAISWVRQAPGQGLEWMGGIIPIFGTANYAQKFQGRVTITADESTSTAYMELSSLRSEDTAVYYCARGTLDRTGHLDYWGQGTLVTVSS VL: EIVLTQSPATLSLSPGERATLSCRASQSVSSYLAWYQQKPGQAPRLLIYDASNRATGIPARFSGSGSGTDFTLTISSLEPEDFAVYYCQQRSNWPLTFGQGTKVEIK : 7.30
